Test system: YT
ASSAY PROCEDURE: cells;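 also: growth inhibition of YT cells, measured with a cell viability assay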
Format: functional, cell-based, Homo sapiens
ASSAY CONTEXT: Homo sapiens, YT
Description: SANGER: Inhibition of human YT cell growth in a cell viability assay.
Answer each item with its documented IC50.

Consider the reported IC50 for these compounds:
{"columns": ["SAMPLE SMILES", "SUBJECT OF TEST", "IC50"],
 "data": [
  ["CC(C)C[C@H](NC(=O)[C@H](Cc1ccccc1)NC(=O)c1cnccn1)B(O)O", "YT", "> 0.02 µM"],
  ["COC(=O)[C@H](CCSC)NC(=O)c1ccc(NC[C@@H](N)CS)cc1-c1ccccc1", "YT", "> 1.02 µM"]
]}

Then this compound:
**Q:** Give recorded IC50. NC(=O)c1cccc(-c2cc(Nc3ccc(OC(F)(F)F)cc3)ncn2)c1
**A:** > 1.28 µM
